Each entry below carries its recorded Tm.
B1: Ribonuclease HI, P0A7Y4 (parent)
chain: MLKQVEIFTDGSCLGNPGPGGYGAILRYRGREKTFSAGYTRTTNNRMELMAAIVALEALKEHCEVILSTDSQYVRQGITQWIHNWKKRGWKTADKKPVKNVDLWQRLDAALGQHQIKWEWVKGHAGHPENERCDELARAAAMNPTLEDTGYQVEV

variants of: B1; details: Escherichia coli (strain K12); pH 3; Thermal; CD; glycine-HCl 10 mM; reversible: yes; structure 2RN2; whole UniProt chain shown

Sequence variant: H62A H83A H124A H127A
Unit string: °C
Tm: 54.9
//
Sequence variant: H124A H127A
Unit string: °C
Tm: 53
//
Sequence variant: H124A
Unit string: °C
Tm: 51.1
//
Sequence variant: H62A
Unit string: °C
Tm: 50.7
//
Sequence variant: H127A
Unit string: °C
Tm: 50.3
//
Sequence variant: H83A
Unit string: °C
Tm: 51.5
